assay: Primary qHTS to identify inhibitors of SARS-CoV-2 cell entry (AID 1645846); settings: SARS-CoV-2 pseudovirus cell entry assay, luminescence; series mostly up to 57.1 µM; note: nearly all actives have a fitted effect of over 45% in size
Results filed as inconclusive are left out. The source made the active and inactive calls. Calls come from the whole dose curve.
Respond only with the outcome that fits, drawn from yes (active), no (inactive)

Sample answers from the record:
# Compound, Assigned Class
measured = [
    ("C=CC(=O)Nc1cccc(Oc2nc(Nc3ccc(N4CCN(C)CC4)cc3OC)ncc2Cl)c1", "yes"),
    ("CC1=C(/C=C/C(C)=C/C=C/C(C)=C/C(=O)O)C(C)(C)CCC1", "no"),
    ("Nc1ccccc1NC(=O)c1ccc(CNC(=O)OCc2cccnc2)cc1", "no"),
    ("NC(CO)C(=O)NNCc1ccc(O)c(O)c1O (stereo unspecified)", "no"),
    ("CC(C[N+](C)(C)C)OC(N)=O (stereo unspecified)", "no"),
    ("CN(C)CCCN=c1c2ccccc2n(C)c2[nH]c(=O)n(C)c(=O)c12", "yes"),
]

Qu. Hi team, can someone confirm the assay call for C[C@@]12O[C@@H](C[C@]1(O)CO)n1c3ccccc3c3c4c(c5c6ccccc6n2c5c31)CNC4=O ?
Ans. yes

Qu. Hi team, can someone confirm the assay call for C=C1C(=CC=C2CCC[C@]3(C)[C@@H]([C@H](C)C=C[C@H](C)C(C)C)CC[C@@H]23)C[C@@H](O)C[C@@H]1O ?
Ans. no

Qu. Hi team, can someone confirm the assay call for COc1ccccc1O ?
Ans. no

Qu. Hi team, can someone confirm the assay call for CCN1CCN(C(=O)Cc2ccc(Nc3ncc(F)c(Nc4ccc(C(=O)Nc5ccccc5Cl)cc4)n3)cc2)CC1 ?
Ans. yes

Qu. Hi team, can someone confirm the assay call for COc1cc2nccc(Oc3ccc(NC(=O)Nc4cc(C)on4)c(Cl)c3)c2cc1OC ?
Ans. yes
